I'd be grateful if you could share measured pKi for these entries.
assayMethodText: Inhibition of HCV NS3 protease by FRET assay
Design: species or system Hepacivirus hominis
Answers are plain numbers, as −log10 of the molar value.

compound	pKi
C=C[C@@H]1C[C@]1(NC(=O)C(c1ccccc1)n1c(C)c(Cl)nc(N)c1=O)C(=O)NS(=O)(=O)C1CC1 (some centres not stated)	4.96
O=C(O)CNc1nc(Cl)c(-c2ccccc2)n(CC(=O)Nc2ccccc2C(=O)NS(=O)(=O)c2ccc(C(F)(F)F)cc2)c1=O	5.52
C=C[C@@H]1C[C@]1(NC(=O)C(c1ccccc1)n1c(C)c(Cl)nc(NCCC(C)(C)C)c1=O)C(=O)NS(=O)(=O)C1CC1 (some centres not stated)	5.17

Quick batch: pKi for everything below.
1. C=C[C@@H]1C[C@]1(NC(=O)C(c1ccccc1)n1c(C)c(Cl)nc(NCC(=O)N2CCOCC2)c1=O)C(=O)NS(=O)(=O)C1CC1 (some centres not stated)
2. Cc1c(Cl)nc(NCC(N)=O)c(=O)n1CC(=O)Nc1ccccc1C(=O)NS(=O)(=O)c1ccc(C(F)(F)F)cc1
3. C=C[C@@H]1C[C@]1(NC(=O)C(c1ccccc1)n1c(C)c(Cl)nc(NC(=O)OC(C)(C)C)c1=O)C(=O)O (stereo in doubt; 29b)
4. C=C[C@@H]1C[C@]1(NC(=O)C(c1ccccc1)n1c(C)c(Cl)nc(NCCc2ccccc2)c1=O)C(=O)NS(=O)(=O)C1CC1 (some centres not stated)

### Response
5.00
4.74
4.89
5.08

----------
targetDesc: NS3 protease (Hepatitis C virus subtype 1b, UniProt Q0ZMF1, A156T)
assayMethodText: Inhibition of HCV NS3 protease A156T mutant by FRET assay
I'd be grateful if you could share measured Ki for these entries.
Value and unit, in that order.

Look over these answered cases.
compound	targetDesc	Ki
C=C[C@@H]1C[C@]1(NC(=O)C(c1ccccc1)n1c(C)c(Cl)nc(NC(=O)OC(C)(C)C)c1=O)C(=O)NS(=O)(=O)C1CC1 (stereo not given in full)	NS3 protease (Hepatitis C virus subtype 1b, UniProt Q0ZMF1, A156T)	5.9 µM
Cc1c(Cl)nc(NC(=O)OC(C)(C)C)c(=O)n1C(C(=O)Nc1ccccc1C(=O)NS(=O)(=O)c1ccc(C(F)(F)F)cc1)c1ccccc1 (stereo not given)	NS3 protease (Hepatitis C virus subtype 1b, UniProt Q0ZMF1, A156T)	1.5 µM
O=C(O)CNc1nc(Cl)c(-c2ccccc2)n(CC(=O)Nc2ccccc2C(=O)NS(=O)(=O)c2ccc(C(F)(F)F)cc2)c1=O	NS3 protease (Hepatitis C virus subtype 1b, UniProt Q0ZMF1, A156T)	5.6 µM
O=C(O)CNc1nc(Cl)c(Cc2ccccc2)n(CC(=O)Nc2ccccc2C(=O)NS(=O)(=O)c2ccc(C(F)(F)F)cc2)c1=O	NS3 protease (Hepatitis C virus subtype 1b, UniProt Q0ZMF1, A156T)	2.5 µM

Here is the next item to consider.
### Prompt Suppose we examine the compound O=C(O)CNc1nc(Cl)cn(C(C(=O)Nc2ccccc2C(=O)NS(=O)(=O)c2ccc(C(F)(F)F)cc2)c2ccccc2)c1=O (stereo not given) ; what Ki value has been reported?
### Response 1.8 µM

----------
assayMethodText: Inhibition of HCV NS3 protease by FRET assay
Parameters: species or system Hepacivirus hominis
observationType: Ki (µM)
Answers are plain numbers, in µM.

Look over these answered cases.
molecule	unitsText	Ki
Cc1c(Cl)nc(NC(=O)OC(C)(C)C)c(=O)n1C(C(=O)Nc1ccccc1C(=O)NS(=O)(=O)c1ccc(C(F)(F)F)cc1)c1ccccc1 (configuration not stated)	µM	3.8
C=C[C@@H]1C[C@]1(NC(=O)C(c1ccccc1)n1c(C)c(Cl)nc(NCCN2CCOCC2)c1=O)C(=O)NS(=O)(=O)C1CC1 (some centres not stated)	µM	11
C=C[C@@H]1C[C@]1(NC(=O)C(c1ccccc1)n1c(C)c(Cl)nc(NC(=O)OC(C)(C)C)c1=O)C(=O)NS(=O)(=O)C1CC1 (some centres not stated)	µM	4.3
C=C[C@@H]1C[C@]1(NC(=O)C(c1ccccc1)n1c(C)c(Cl)nc(NCC(N)=O)c1=O)C(=O)NS(=O)(=O)C1CC1 (some centres not stated)	µM	12
O=C(O)CNc1nc(Cl)c(Cc2ccccc2)n(CC(=O)Nc2ccccc2C(=O)NS(=O)(=O)c2ccc(C(F)(F)F)cc2)c1=O	µM	1.5

Quick batch: Ki for everything below.
1. C=C[C@@H]1C[C@]1(NC(=O)C(c1ccc(OC)cc1)n1c(C)c(Cl)nc(NC(=O)OC(C)(C)C)c1=O)C(=O)NS(=O)(=O)C1CC1 (some centres not stated)
2. C=C[C@@H]1C[C@]1(NC(=O)[C@H](NC(=O)[C@@H](NC(=O)OC(C)(C)C)C(C)(C)C)c1ccc(OC)cc1)C(=O)NS(=O)(=O)C1CC1
3. O=C(O)CNc1nc(Cl)cn(C(C(=O)Nc2ccccc2C(=O)NS(=O)(=O)c2ccc(C(F)(F)F)cc2)c2ccccc2)c1=O (configuration not stated)
4. C=C[C@@H]1C[C@]1(NC(=O)C(c1ccccc1)n1c(C)c(Cl)nc(NC(=O)OC(C)(C)C)c1=O)C(=O)O (stereo in doubt; 29a)

### Response
[7.2, 34, 2.3, 11]

Quick batch: Ki for everything below.
1. Cc1c(Cl)nc(NC(=O)OC(C)(C)C)c(=O)n1C(C(=O)N[C@@H](CC1CC1)C(=O)NS(=O)(=O)C1CC1)c1ccccc1 (some centres not stated)
2. C=C[C@@H]1C[C@]1(NC(=O)[C@@H](NC(=O)[C@@H](NC(=O)OC(C)(C)C)C(C)(C)C)c1ccc(OC)cc1)C(=O)NS(=O)(=O)C1CC1
3. C=C[C@@H]1C[C@]1(NC(=O)C(c1ccccc1)n1c(C)c(Cl)nc(NCC(=O)N(C)C)c1=O)C(=O)NS(=O)(=O)C1CC1 (some centres not stated)

### Response
1: 9.6; 2: 5.4; 3: 28
